Reported Cmax by item:
- EXPERIMENTAL_PROTOCOL: Plasma pharmacokinetic profiling in mice
- CONDITION: female, CD1, mouse, in vivo, po, 25 mg/kg, maximal plasma concentration (Cmax), 25 mg/kg p.o.

N#Cc1ccn2c(-c3ccncc3)c(-c3ccc(F)cc3)nc2c1	~36 µM

What Cmax value was documented for this compound, "N#Cc1ccc2c(-c3ccncc3)c(-c3ccc(F)cc3)nn2c1" ?
~15 µM

---

Reported pIC50 by item:
- ASSAYED_TARGET: C. albicans Yck2 kinase domain (Candida albicans, UniProt A0A1D8PKB4)
- Sequence (A0A1D8PKB4 37-345): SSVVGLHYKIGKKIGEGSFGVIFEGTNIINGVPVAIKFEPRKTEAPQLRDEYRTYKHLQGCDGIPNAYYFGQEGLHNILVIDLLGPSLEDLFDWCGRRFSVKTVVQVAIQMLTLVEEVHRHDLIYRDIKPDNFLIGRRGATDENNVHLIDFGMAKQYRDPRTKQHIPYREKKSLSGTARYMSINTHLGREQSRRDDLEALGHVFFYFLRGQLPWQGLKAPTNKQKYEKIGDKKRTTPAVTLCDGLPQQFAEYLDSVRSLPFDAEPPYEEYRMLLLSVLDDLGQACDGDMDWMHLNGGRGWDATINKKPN
# log scale: pIC50 equals minus log10 of the concentration in mol/L

See these solved cases before continuing.
CCc1ccn2c(-c3ccncc3)c(-c3ccc(F)cc3)nc2c1 [Compound 1d]	6.31
Cc1ccn2c(-c3ccncc3)c(-c3ccc(F)cc3)nc2c1 [Compound 1a]	6.20

Please state recorded pIC50 (tested on C. albicans Yck2 kinase domain (Candida albicans, UniProt A0A1D8PKB4)) of COc1cccn2nc(-c3ccc(F)cc3)c(-c3ccncc3)c12 [Compound 2n]
6.92

Would you kindly repeat that for COc1ccn2c(-c3ccncc3)c(-c3ccc(F)cc3)nc2c1 [Compound 1b] ?
6.59

Would you kindly repeat that for Fc1ccc(-c2nc3cc(C4CC4)ccn3c2-c2ccncc2)cc1 [Compound 1h] ?
6.74

Would you kindly repeat that for Fc1ccc(-c2nc3cc(C(F)(F)F)ccn3c2-c2ccncc2)cc1 [Compound 1g] ?
6.20

Would you kindly repeat that for CC(C)(C)c1ccn2c(-c3ccncc3)c(-c3ccc(F)cc3)nc2c1 [Compound 1c] ?
6.15

---

Reported remaining at 0.5 h, 1 µM by item:
- EXPERIMENTAL_PROTOCOL: Mouse liver microsomal stability assay
- CONDITION: mouse, mouse liver microsomes
Report as a plain number; the unit % is understood.

See these solved cases before continuing.
Cc1ccn2c(-c3ccncc3)c(-c3ccc(F)cc3)nc2c1 [Compound 1a]	0
Cc1ccn2nc(-c3ccc(F)cc3)c(-c3ccncc3)c2c1 [Compound 2f]	1
Fc1ccc(-c2nc3cc(C4CC4)ccn3c2-c2ccncc2)cc1 [Compound 1h]	0

Next, consider the following compound.
What remaining at 0.5 h, 1 µM value was documented for this compound, CC(C)(C)c1ccn2c(-c3ccncc3)c(-c3ccc(F)cc3)nc2c1 [Compound 1c] ?
67

---

- EXPERIMENTAL_PROTOCOL: Mouse liver microsomal stability assay
- CONDITION: mouse, mouse liver microsomes
MEASUREMENT_LABEL: remaining at 0.5 h, 1 µM (%)
Report as a plain number; the unit % is understood.

Fc1ccc(-c2nc3cc(C(F)(F)F)ccn3c2-c2ccncc2)cc1	84
COc1cccn2nc(-c3ccc(F)cc3)c(-c3ccncc3)c12	1

Next, consider the following molecule.
What remaining at 0.5 h, 1 µM value was documented for this molecule, "COc1ccn2c(-c3ccncc3)c(-c3ccc(F)cc3)nc2c1" ?
2

Values were extracted from paper PMC11880385.
